Give Ki for every item shown.
Target: UniProt O43570
Sequence (O43570 whole entry): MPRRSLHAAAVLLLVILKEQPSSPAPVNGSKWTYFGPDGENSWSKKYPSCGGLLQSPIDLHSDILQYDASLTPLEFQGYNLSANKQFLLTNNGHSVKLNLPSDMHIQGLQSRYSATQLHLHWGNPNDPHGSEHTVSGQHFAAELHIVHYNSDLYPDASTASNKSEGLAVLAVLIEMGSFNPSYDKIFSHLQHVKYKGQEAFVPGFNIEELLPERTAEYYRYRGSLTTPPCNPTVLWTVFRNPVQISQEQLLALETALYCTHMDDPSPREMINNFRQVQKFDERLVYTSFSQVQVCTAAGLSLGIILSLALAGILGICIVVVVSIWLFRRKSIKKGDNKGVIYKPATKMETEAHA
Answers are plain numbers, in nM.

- structure_as_smiles: "C/C(=N\\NC(N)=S)c1nnn(-c2ccc(S(N)(=O)=O)cc2)c1C"
  Ki / nM: 15.3

Batch lookup, Ki per entry.
1. CC(=O)c1nnn(-c2ccc(S(N)(=O)=O)cc2)c1C
2. C/C(=N\NC(N)=O)c1nnn(-c2ccc(S(N)(=O)=O)cc2)c1C
3. Cc1c(-c2nn(-c3ccccc3)cc2/C=N/O)nnn1-c1ccc(C(=O)O)cc1

-- reply
1. 82.6
2. 19.8
3. 154

====

Assay: Toxicity in ip dosed BALB/c mouse measured for 3 days
Type: organism-based
Settings: in vivo, time 3 day
endpoint_name: LD50 at 72 h
Report the figure along with its unit, number first.

- structure_as_smiles: "Cc1c(-c2nn(-c3ccccc3)cc2/C=N/O)nnn1-c1ccc(C(=O)O)cc1"
  LD50 at 72 h: "61.7 mg/kg"

Attention now turns to another entry.
# LD50 at 72 h (molecule: `O=c1[nH]cc(F)c(=O)[nH]1` ) is 57.2 mg/kg
